Data origin: ChEMBL document CHEMBL4665872

Test: Drug uptake in human HeLa cells assessed as cytosolic entry efficiency measured as fluorescence at 5 uM incubated for 2 hrs by flow cytometry relative to CPP9 (100%)
Assay type: ADME, cell-based
Listed next: entries and their corresponding RFU.
Answer format: numeric, % implied, no suffix.

Smiles notation: CC(C)[C@@H]1NC(=O)[C@H](Cc2ccc(OP(=O)(O)O)cc2)NC(=O)[C@H](CCCNC(=N)N)NC(=O)[C@H](CCCNC(=N)N)NC(=O)[C@@H]2CCCN2C(=O)[C@H]2CCCN2C(=O)[C@@H](C)NC(=O)[C@H](C)NC(=O)[C@H](Cc2ccccc2)NC(=O)[C@H](CC(=O)NCCOCCOCC(=O)N[C@@H](CCCCNC(=O)c2ccc3c(c2)C(=O)OC32c3ccc4cc(O)ccc4c3Oc3c2ccc2cc(O)ccc32)C(N)=O)NC1=O
U: %
RFU: 2

Next:
// RFU value for C[C@@H]1NC(=O)[C@H](C)NC(=O)[C@H](Cc2ccccc2)NC(=O)[C@H](CCCNC(=N)N)NC(=O)[C@H](CCCNC(=N)N)NC(=O)[C@@H]2CCCN2C(=O)[C@H]2CCCN2C(=O)[C@@H](CCCNC(=N)N)NC(=O)[C@H](Cc2ccc3ccccc3c2)NC(=O)[C@H](Cc2ccccc2)NC(=O)[C@H](C)NC(=O)[C@H](C)NC(=O)[C@H](CCC(=O)NCCOCCOCC(=O)N[C@@H](CCCCNC(=O)c2ccc3c(c2)C(=O)OC32c3ccc4cc(O)ccc4c3Oc3c2ccc2cc(O)ccc32)C(N)=O)NC(=O)[C@H](C)NC1=O : 33

====

Listed next: entries and their corresponding RFU.
Assay: Drug uptake in human HeLa cells assessed as cytosolic entry efficiency measured as fluorescence at 5 uM incubated for 2 hrs by flow cytometry relative to CPP9 (100%)
Assay type: ADME, cell-based
# answer = value followed by unit

Smiles notation: C[C@@H]1NC(=O)[C@H](C)NC(=O)[C@H](Cc2ccccc2)NC(=O)[C@H](CCCNC(=N)N)NC(=O)[C@H](CCCNC(=N)N)NC(=O)[C@@H]2CCCN2C(=O)[C@H]2CCCN2C(=O)[C@H](CCCNC(=N)N)NC(=O)[C@@H](Cc2ccc3ccccc3c2)NC(=O)[C@H](Cc2ccccc2)NC(=O)[C@H](C)NC(=O)[C@H](C)NC(=O)[C@H](CCC(=O)NCCOCCOCC(=O)N[C@@H](CCCCNC(=O)c2ccc3c(c2)C(=O)OC32c3ccc4cc(O)ccc4c3Oc3c2ccc2cc(O)ccc32)C(N)=O)NC(=O)[C@H](C)NC1=O
RFU: 51%
//
Smiles notation: C[C@@H]1NC(=O)[C@H](CCC(=O)NCCOCCOCC(=O)N[C@@H](CCCCNC(=O)c2ccc3c(c2)C(=O)OC32c3ccc4cc(O)ccc4c3Oc3c2ccc2cc(O)ccc32)C(N)=O)NC(=O)[C@H](Cc2ccccc2)NC(=O)[C@H](CCCNC(=N)N)NC(=O)[C@H](CCCNC(=N)N)NC(=O)[C@@H]2CCCN2C(=O)[C@H]2CCCN2C(=O)[C@@H](CCCNC(=N)N)NC(=O)[C@H](Cc2ccc3ccccc3c2)NC(=O)[C@H](Cc2ccccc2)NC1=O
RFU: 94%
//
Smiles notation: C[C@@H]1NC(=O)[C@H](C)NC(=O)[C@H](Cc2ccccc2)NC(=O)[C@H](CCCNC(=N)N)NC(=O)[C@@H](CCCNC(=N)N)NC(=O)[C@@H]2CCCN2C(=O)[C@H]2CCCN2C(=O)[C@H](CCCNC(=N)N)NC(=O)[C@H](Cc2ccc3ccccc3c2)NC(=O)[C@H](Cc2ccccc2)NC(=O)[C@H](C)NC(=O)[C@H](C)NC(=O)[C@H](CCC(=O)NCCOCCOCC(=O)N[C@@H](CCCCNC(=O)c2ccc3c(c2)C(=O)OC32c3ccc4cc(O)ccc4c3Oc3c2ccc2cc(O)ccc32)C(N)=O)NC(=O)[C@H](C)NC1=O
RFU: 32%

Next:
// RFU value for C[C@@H]1NC(=O)[C@H](CCCNC(=N)N)NC(=O)[C@H](CCC(=O)NCCOCCOCC(=O)N[C@@H](CCCCNC(=O)c2ccc3c(c2)C(=O)OC32c3ccc4cc(O)ccc4c3Oc3c2ccc2cc(O)ccc32)C(N)=O)NC(=O)[C@H](CCCNC(=N)N)NC(=O)[C@H](C)NC(=O)[C@H](CCCNC(=N)N)NC(=O)[C@H](Cc2ccccc2)NC(=O)[C@H](CCCNC(=N)N)NC(=O)[C@H](CCCNC(=N)N)NC(=O)[C@@H]2CCCN2C(=O)[C@H]2CCCN2C(=O)[C@@H](CCCNC(=N)N)NC(=O)[C@H](Cc2ccc3ccccc3c2)NC(=O)[C@H](Cc2ccccc2)NC1=O : 34%

====

Experiment: Drug uptake in human HeLa cells assessed as cytosolic entry efficiency measured as fluorescence at 5 uM incubated for 2 hrs by flow cytometry relative to CPP9 (100%)
Format: ADME, cell-based
Listed next: entries and their corresponding RFU.
Answer format: numeric, % implied, no suffix.

Use the examples below as a reference point.
Smiles notation: C[C@@H]1NC(=O)[C@H](Cc2ccccc2)NC(=O)[C@H](CCCNC(=N)N)NC(=O)[C@H](CCCNC(=N)N)NC(=O)[C@@H]2CCCN2C(=O)[C@H]2CCCN2C(=O)[C@@H](CCCNC(=N)N)NC(=O)[C@H](Cc2ccc3ccccc3c2)NC(=O)[C@H](Cc2ccccc2)NC(=O)[C@H](CCC(=O)NCCOCCOCC(=O)N[C@@H](CCCCNC(=O)c2ccc3c(c2)C(=O)OC32c3ccc4cc(O)ccc4c3Oc3c2ccc2cc(O)ccc32)C(N)=O)NC1=O
Readout type: RFU
Value: 8
--
Smiles notation: C[C@@H]1NC(=O)[C@H](C)NC(=O)[C@H](Cc2ccccc2)NC(=O)[C@H](CCCNC(=N)N)NC(=O)[C@H](CCCNC(=N)N)NC(=O)[C@@H]2CCCN2C(=O)[C@H]2CCCN2C(=O)[C@H](CCCNC(=N)N)NC(=O)[C@H](Cc2ccc3ccccc3c2)NC(=O)[C@H](Cc2ccccc2)NC(=O)[C@H](C)NC(=O)[C@H](C)NC(=O)[C@H](CCC(=O)NCCOCCOCC(=O)N[C@@H](CCCCNC(=O)c2ccc3c(c2)C(=O)OC32c3ccc4cc(O)ccc4c3Oc3c2ccc2cc(O)ccc32)C(N)=O)NC(=O)[C@H](C)NC1=O
Readout type: RFU
Value: 22
--
Smiles notation: C[C@@H]1NC(=O)[C@H](CO)NC(=O)[C@H](C)NC(=O)[C@H](CO)NC(=O)[C@H](Cc2ccccc2)NC(=O)[C@H](CCCNC(=N)N)NC(=O)[C@H](CCCNC(=N)N)NC(=O)[C@@H]2CCCN2C(=O)[C@H]2CCCN2C(=O)[C@@H](CCCNC(=N)N)NC(=O)[C@H](Cc2ccc3ccccc3c2)NC(=O)[C@H](Cc2ccccc2)NC(=O)[C@H](CO)NC(=O)[C@H](C)NC(=O)[C@H](CO)NC(=O)[C@H](CCC(=O)NCCOCCOCC(=O)N[C@@H](CCCCNC(=O)c2ccc3c(c2)C(=O)OC32c3ccc4cc(O)ccc4c3Oc3c2ccc2cc(O)ccc32)C(N)=O)NC1=O
Readout type: RFU
Value: 84

// RFU value for C[C@@H]1NC(=O)[C@H](C)NC(=O)[C@H](CCCNC(=N)N)NC(=O)[C@H](CCCNC(=N)N)NC(=O)[C@H](CCCNC(=N)N)NC(=O)[C@@H]2CCCN2C(=O)[C@H]2CCCN2C(=O)[C@H](CCCNC(=N)N)NC(=O)[C@H](Cc2ccc3ccccc3c2)NC(=O)[C@H](Cc2ccccc2)NC(=O)[C@H](C)NC(=O)[C@H](C)NC(=O)[C@H](CCC(=O)NCCOCCOCC(=O)N[C@@H](CCCCNC(=O)c2ccc3c(c2)C(=O)OC32c3ccc4cc(O)ccc4c3Oc3c2ccc2cc(O)ccc32)C(N)=O)NC(=O)[C@H](C)NC1=O : 21
